Each entry below lists one item and its recorded pIC50 value.
target: Isocitrate dehydrogenase [NADP] cytoplasmic (Homo sapiens, UniProt O75874, R132H); experiment: Inhibition of human C-terminal His8-tagged IDH1-R132H mutant expressed in Escherichia coli Rosetta assessed as inhibition of ketoreductase activity by measuring NADPH consumption preincubated for 60 mins followed by addition of alpha-KG as substrate measured after 50 mins in presence of NADPH and Mg2+ by resazurin based diaphorase-coupled fluorescence assay
Sequence (O75874 2-414 R132H limits assumed): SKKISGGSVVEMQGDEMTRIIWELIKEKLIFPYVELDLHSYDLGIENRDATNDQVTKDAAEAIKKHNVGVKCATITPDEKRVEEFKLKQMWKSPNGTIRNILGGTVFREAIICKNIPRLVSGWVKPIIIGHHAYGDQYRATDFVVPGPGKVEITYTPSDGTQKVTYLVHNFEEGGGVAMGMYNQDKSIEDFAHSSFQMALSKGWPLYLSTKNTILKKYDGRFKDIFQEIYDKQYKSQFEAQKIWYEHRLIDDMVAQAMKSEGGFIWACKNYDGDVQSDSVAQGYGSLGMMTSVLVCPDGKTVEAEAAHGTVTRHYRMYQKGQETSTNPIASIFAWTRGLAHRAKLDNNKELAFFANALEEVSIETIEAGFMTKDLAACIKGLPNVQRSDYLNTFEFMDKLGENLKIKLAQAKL
pIC50: −log10 of the molar value.

>  <SMILES>
C[C@@H]1CN([C@@H](C)CO)S(=O)(=O)c2ccc(C#Cc3cccc(F)c3)cc2O[C@H]1CN(C)C(=O)NCC1CCCCC1

>  <pIC50>
6.80

$$$$
>  <SMILES>
C[C@@H]1CN([C@@H](C)CO)S(=O)(=O)c2ccc(C#Cc3ccccc3)cc2O[C@H]1CN(C)C(=O)NC1CCCCC1

>  <pIC50>
7.12

$$$$
>  <SMILES>
C[C@@H]1CN([C@@H](C)CO)S(=O)(=O)c2ccc(C#Cc3ccc(F)cn3)cc2O[C@H]1CN(C)C(=O)NC1CCCCC1

>  <pIC50>
6.59

$$$$
>  <SMILES>
C[C@H]1CN([C@@H](C)CO)S(=O)(=O)c2ccc(C#Cc3cccc(F)c3)cc2O[C@H]1CN(C)C(=O)NC1CCCCC1

>  <pIC50>
5.20

$$$$
>  <SMILES>
CCCNC(=O)N(C)C[C@@H]1Oc2cc(C#Cc3cccc(F)c3)ccc2S(=O)(=O)N([C@@H](C)CO)C[C@H]1C

>  <pIC50>
6.26

$$$$
>  <SMILES>
C[C@@H]1CN([C@@H](C)CO)S(=O)(=O)c2ccc(-c3cccnc3)cc2O[C@H]1CN(C)C(=O)NC1CCCCC1

>  <pIC50>
5.19

$$$$
>  <SMILES>
C[C@@H]1CN([C@@H](C)CO)S(=O)(=O)c2ccc(C#Cc3cccc(F)c3)cc2O[C@H]1CN(C)C(=O)CC1CCCCC1

>  <pIC50>
6.44

$$$$
>  <SMILES>
C[C@@H]1CN([C@@H](C)CO)S(=O)(=O)c2ccc(C#Cc3cccc(F)c3)cc2O[C@H]1CN(C)C(=O)NC1CC1

>  <pIC50>
6.00

$$$$
>  <SMILES>
C[C@@H]1CN([C@@H](C)CO)S(=O)(=O)c2ccc(C#Cc3cncn3C)cc2O[C@H]1CN(C)C(=O)NC1CCCCC1

>  <pIC50>
5.80

$$$$
>  <SMILES>
CCNC(=O)N(C)C[C@@H]1Oc2cc(C#Cc3cccc(F)c3)ccc2S(=O)(=O)N([C@@H](C)CO)C[C@H]1C

>  <pIC50>
5.85

$$$$
>  <SMILES>
C[C@@H]1CN([C@@H](C)CO)S(=O)(=O)c2ccc(C#Cc3ccc(Cl)cc3)cc2O[C@H]1CN(C)C(=O)NC1CCCCC1

>  <pIC50>
7.25

$$$$
>  <SMILES>
C[C@H]1CN([C@@H](C)CO)S(=O)(=O)c2ccc(C#Cc3cccc(F)c3)cc2O[C@@H]1CN(C)C(=O)NC1CCCCC1

>  <pIC50>
6.00

$$$$
>  <SMILES>
C[C@@H]1CN([C@@H](C)CN(C)C)S(=O)(=O)c2ccc(C#Cc3ccc(F)cc3)cc2O[C@H]1CN(C)C(=O)NC1CCCCC1

>  <pIC50>
7.49

$$$$
>  <SMILES>
C[C@@H]1CN([C@@H](C)CO)S(=O)(=O)c2ccc(C#Cc3ccc(F)cc3)cc2O[C@H]1CN(C)C(=O)NC1CCCCC1

>  <pIC50>
7.43

$$$$
>  <SMILES>
C[C@@H]1CN([C@@H](C)CO)S(=O)(=O)c2ccc(C#Cc3cccnc3)cc2O[C@H]1CN(C)C(=O)NC1CCCCC1

>  <pIC50>
6.85

$$$$
>  <SMILES>
C[C@H](CO)N1C[C@H](C)[C@@H](CN(C)C(=O)NC2CCCCC2)Oc2cc(C#Cc3cccc(F)c3)ccc2S1(=O)=O

>  <pIC50>
5.77

$$$$
>  <SMILES>
COc1ccc(OC[C@H](C)N2C[C@@H](C)[C@H](CN(C)C(=O)NC3CCCCC3)Oc3cc(C#Cc4cccnc4)ccc3S2(=O)=O)cc1

>  <pIC50>
7.02

$$$$
>  <SMILES>
C[C@@H]1CN([C@@H](C)CO)S(=O)(=O)c2ccc(C#Cc3cccc(F)c3)cc2O[C@H]1CN(C)C(=O)C1CCCCC1

>  <pIC50>
6.36

$$$$
>  <SMILES>
C[C@@H]1CN([C@@H](C)CO)S(=O)(=O)c2ccc(C#C[Si](C)(C)C)cc2O[C@H]1CN(C)C(=O)NC1CCCCC1

>  <pIC50>
6.85

$$$$
>  <SMILES>
C[C@@H]1CN([C@@H](C)CO)S(=O)(=O)c2ccc(C#Cc3cccc(F)c3)cc2O[C@H]1CN(C)C(=O)c1ccno1

>  <pIC50>
4.72

$$$$
